- Tested on: K4 kissing-loop RNA reporter;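 further: bound reporter read as fluorescence of individual clusters on recovered sequencing chips by microscopy, with normalized cluster intensities fitted with a binding model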
- Test details: apparent KD of K4 kissing-loop reporter; higher = weaker reporter binding
- Conditions used: Eterna round: R107; input ligand: arginine 13.2 mM
Reported metric: apparent KD of K4 kissing-loop reporter (nM)

- UGAUAGGACAGAAGGAGCGGUAGUGAUGUUACCAAAAGGGUAAGGUGUCAAAAGACACCCUACCAGGUAGGUCGCUGUCCUAUCU: 96
- CACCAUGAAUUCUCUAGGAGUGAUGUUUUUCGAGGACCGGUACGGCCGCCACUCGGACGAGGACCGUGGGAGCGGCGAACCGACU [ddfgmullin]: 74.7
- UUAGAUCAAAGAUCAGUCUUAUGGAGGGAACGAGGACCGGUACGGCCGCCACUCGAGUGAUGUUCGAGAACCCUCGUGACAAAUU [AK4 EXC Tryptophan A]: 146
